Recorded values, source PubChem BioAssay.

In this section, each of the compounds is paired with its reported composite z-score.
# EXPERIMENTAL_TARGET: Torsin-1A (Homo sapiens)
# MEASUREMENT_NOTES: TOR1A wild-type binding on microarray – cell lysate, small-molecule microarray, lysate, 635/667 nm, primary screen (AID 1149)
# STUDY_CONDITIONS: COS7 hTOR1A-WT lysate, 635 nm fluorescence, higher = more signal

Reference set, count: 5
COc1ccc(CCNC(=O)[C@@H]2c3ccccc3C(=O)N(Cc3ccccc3C(F)(F)F)[C@H]2c2ccc(CO)cc2)cc1 = -1.27
COc1cc(C(O)C2C=CC3C(=O)N(C)C(=O)C3N2NC(=O)OC(C)(C)C)cc(OC)c1OC (configuration not stated) = -0.146
COCCOC(=O)N1C(=O)[C@@]2(c3cc(C#CC4(O)CCCCCC4)ccc31)[C@H](C(=O)N1CCN(c3ncccn3)CC1)[C@H]1C(=O)O[C@H](c3ccccc3)[C@H](c3ccccc3)N1[C@@H]2c1ccc(O)cc1 = 0.553
COc1ccc([Si](C)(C)[C@@H]2[C@@H](CC(=O)N(CCO)Cc3ccccc3)O[C@]3(C(=O)N(Cc4ccc(N5CCOC5=O)cc4)c4ccccc43)[C@H]2C)cc1 = 0.436
COc1ccccc1CN1C(=O)c2ccccc2[C@](Cc2ccccc2I)(C(=O)NCCN2CCOCC2)[C@@H]1c1ccc(CO)cc1 = 0.301

Briefly, composite z-score measured for CCOC(=O)C1=CCC(c2cccc(Cl)c2)O1 (configuration not stated) : 0.368

Looking up CN(C)C(=O)[C@@]1(CCC(=O)OC(C)(C)C)COC(c2ccc(OCCCO)cc2)=N1 , I see its composite z-score listed as 0.445
